# Measured on: Epidermal growth factor receptor (Homo sapiens, UniProt P00533)
# Sequence (P00533 whole entry): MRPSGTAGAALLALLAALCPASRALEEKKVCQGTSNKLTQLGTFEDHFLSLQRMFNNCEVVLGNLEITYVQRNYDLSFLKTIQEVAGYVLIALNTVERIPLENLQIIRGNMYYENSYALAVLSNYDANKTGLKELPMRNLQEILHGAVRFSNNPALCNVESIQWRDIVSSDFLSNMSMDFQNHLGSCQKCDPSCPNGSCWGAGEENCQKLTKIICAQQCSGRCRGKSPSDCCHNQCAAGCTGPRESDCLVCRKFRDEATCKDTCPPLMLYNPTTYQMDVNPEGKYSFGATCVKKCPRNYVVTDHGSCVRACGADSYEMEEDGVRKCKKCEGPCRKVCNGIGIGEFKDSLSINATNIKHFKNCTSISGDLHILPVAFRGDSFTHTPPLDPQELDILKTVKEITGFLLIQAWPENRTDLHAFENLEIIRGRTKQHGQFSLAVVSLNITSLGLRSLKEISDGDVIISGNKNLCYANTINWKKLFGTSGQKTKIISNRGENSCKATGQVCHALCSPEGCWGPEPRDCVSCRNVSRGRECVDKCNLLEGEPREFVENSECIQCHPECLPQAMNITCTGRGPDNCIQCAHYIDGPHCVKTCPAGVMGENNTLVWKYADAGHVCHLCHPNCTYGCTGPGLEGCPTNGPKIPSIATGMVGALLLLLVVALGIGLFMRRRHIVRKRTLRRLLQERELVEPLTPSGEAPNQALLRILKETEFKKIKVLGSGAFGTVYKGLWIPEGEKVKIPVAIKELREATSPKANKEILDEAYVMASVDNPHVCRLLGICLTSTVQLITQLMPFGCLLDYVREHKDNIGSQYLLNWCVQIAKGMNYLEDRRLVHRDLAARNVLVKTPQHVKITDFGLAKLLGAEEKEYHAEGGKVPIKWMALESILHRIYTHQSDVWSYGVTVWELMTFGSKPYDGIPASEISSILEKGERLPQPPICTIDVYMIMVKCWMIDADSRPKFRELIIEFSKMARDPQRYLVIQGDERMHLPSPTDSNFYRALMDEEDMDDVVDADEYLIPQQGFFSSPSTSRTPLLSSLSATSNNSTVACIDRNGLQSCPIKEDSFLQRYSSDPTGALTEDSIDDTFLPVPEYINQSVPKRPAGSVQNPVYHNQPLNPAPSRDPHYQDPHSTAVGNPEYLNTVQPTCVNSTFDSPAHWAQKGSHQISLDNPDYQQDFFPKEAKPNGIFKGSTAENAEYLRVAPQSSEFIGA
# Assay method text: Inhibition of recombinant EGFR (unknown origin) after 10 mins by DELFIA/time-resolved fluorometry
pIC50: −log10 of the molar value.
Answer each item with its documented pIC50.

CN(C)C/C=C/C(=O)Nc1ccc(-c2cncc(C#N)c2Nc2ccc(OCc3ccccn3)c(Cl)c2)cc1; < 5.30
Cc1ncc(C#N)c(Nc2ccc(OCc3ccccn3)c(Cl)c2)c1/C=C/c1ccc(CNCCS(C)(=O)=O)o1; < 5.30
Cc1ncc(C#N)c(Oc2ccc(OCc3ccccn3)c(Cl)c2)c1C#Cc1ccc(CNCCS(C)(=O)=O)o1; < 5.30
CCOc1cc([N+](=O)[O-])c(C(=O)Nc2ccc(OCc3ccccn3)c(Cl)c2)cc1NC(=O)/C=C/CN(C)C; 6.07

Parameters: items (list). Returns: pIC50 for each item.
1. CC(=O)c1ccc(Nc2c(C#N)cncc2-c2ccc(NC(=O)/C=C/CN(C)C)cc2)cc1
2. Cc1ncc(C#N)c(Nc2ccc(OCc3ccccn3)c(Cl)c2)c1/C=C/c1cccc(NC(=O)/C=C/CN(C)C)c1

< 5.30
< 5.30

Origin of the recorded values: ChEMBL document CHEMBL2384937
